molecular target: GLP-1 receptor (Homo sapiens, UniProt P43220); test: FLIPR calcium flux assay, antagonist format, GLP-1; format: cell-based; details: 1 μM, reference ligand Glucagon at EC80 as 0% inhibition; read-out: % Inhibition Antagonist GLP-1
Sequence (P43220 24-463): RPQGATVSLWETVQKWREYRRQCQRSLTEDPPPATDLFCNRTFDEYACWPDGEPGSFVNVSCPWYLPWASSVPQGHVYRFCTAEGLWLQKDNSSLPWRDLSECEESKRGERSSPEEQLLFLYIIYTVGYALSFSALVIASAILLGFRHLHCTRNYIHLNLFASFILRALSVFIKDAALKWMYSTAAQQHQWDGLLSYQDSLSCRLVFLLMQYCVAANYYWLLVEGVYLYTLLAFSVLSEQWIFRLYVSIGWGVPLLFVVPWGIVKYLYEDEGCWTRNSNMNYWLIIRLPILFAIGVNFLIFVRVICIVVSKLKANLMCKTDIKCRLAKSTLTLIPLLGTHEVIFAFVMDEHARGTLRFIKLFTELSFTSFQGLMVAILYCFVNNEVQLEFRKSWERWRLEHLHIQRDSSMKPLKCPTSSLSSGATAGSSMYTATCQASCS
measurement type: inhibition at 1 µM (%)
Just the number in %, nothing appended.

Input line: Give its inhibition at 1 µM value. Item: CC(C)Cc1cccc(C(C)C(=O)N(C)CC[C@@H](Oc2ccc(C(F)(F)F)cc2)c2ccccc2)c1 (stereo partly drawn) [Compound 35a]
Output line: 7.7

Input line: Try this compound next: CC(C)Cc1ccc(CC(=O)N(C)CC[C@@H](Oc2ccc(C(F)(F)F)cc2)c2ccccc2)cc1 [Compound 32a]
Output line: 0.8

Input line: Try this compound next: CCc1ccc(C(C)C(=O)N(C)CC[C@H](Oc2ccc(C(F)(F)F)cc2)c2ccccc2)cc1 (stereo partly drawn) [Compound 34b]
Output line: 1.6

====

Parameter inhibition at 1 µM: see the listing below.
molecular target: CB1 receptor (Homo sapiens, UniProt P21554); assay: FLIPR calcium flux assay, antagonist format, CB1; format: cell-based; conditions: reference agonist CP-55,940 at EC80 as 0% inhibition
Sequence (P21554 whole entry): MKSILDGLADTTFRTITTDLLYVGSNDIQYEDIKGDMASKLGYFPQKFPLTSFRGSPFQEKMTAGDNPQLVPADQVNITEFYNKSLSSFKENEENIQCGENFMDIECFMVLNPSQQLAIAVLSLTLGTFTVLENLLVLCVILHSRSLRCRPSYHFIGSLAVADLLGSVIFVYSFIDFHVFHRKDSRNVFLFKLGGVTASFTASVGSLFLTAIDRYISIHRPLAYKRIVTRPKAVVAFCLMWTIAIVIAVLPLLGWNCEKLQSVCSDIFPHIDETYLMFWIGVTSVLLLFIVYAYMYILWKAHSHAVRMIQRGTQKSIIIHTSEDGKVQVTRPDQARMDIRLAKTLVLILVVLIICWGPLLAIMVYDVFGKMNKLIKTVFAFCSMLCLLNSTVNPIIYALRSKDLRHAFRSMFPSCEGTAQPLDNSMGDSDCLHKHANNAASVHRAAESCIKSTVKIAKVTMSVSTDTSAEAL
Just the number in %, nothing appended.

# example entries with known answers
Input line: Give its inhibition at 1 µM value. Item: C[C@H](C(=O)N(C)CC[C@H](Oc1ccc(C(F)(F)F)cc1)c1ccccc1)c1ccc(C(F)(F)F)cc1 [Compound 33f]
Output line: 34

Input line: Try this compound next: CC(C)Cc1cccc(C(C)C(=O)N(C)CC[C@H](Oc2ccc(C(F)(F)F)cc2)c2ccccc2)c1 (stereo partly shown) [Compound 35b]
Output line: 38.9

Input line: Try this compound next: COc1ccc2c(c1)c(CC(=O)NCC[C@@H](Oc1ccc(C(F)(F)F)cc1)c1ccccc1)c(C)n2C(=O)c1ccc(Cl)cc1
Output line: 46.9

Input line: Try this compound next: C[C@H](C(=O)N(C)CCC(Oc1ccc(C(F)(F)F)cc1)c1ccccc1)c1cccc(C(=O)c2ccccc2)c1 (stereo partly shown)
Output line: 56.6

Input line: Try this compound next: CN(CCC(Oc1ccc(C(F)(F)F)cc1)c1ccccc1)C(=O)C1CCn2c(C(=O)c3ccccc3)ccc21 (stereo not shown)
Output line: 37.7

Input line: Try this compound next: CC(C)Cc1ccc([C@H](C)C(=O)N(C)CC[C@@H](Oc2ccc(C(F)(F)F)cc2)c2ccccc2)cc1 [Compound 12a]
Output line: 52.2

Input line: Try this compound next: C[C@@H](C(=O)N(C)CC[C@H](Oc1ccc(C(F)(F)F)cc1)c1ccccc1)c1ccc(C(F)(F)F)cc1 [Compound 33e]
Output line: 0.8

Input line: Try this compound next: CC(C)Cc1ccc([C@H](C)C(=O)NCC[C@@H](Oc2ccc(C(F)(F)F)cc2)c2ccccc2)cc1
Output line: 7.7

Input line: Try this compound next: CC(C(=O)N(C)CC[C@H](Oc1ccc(C(F)(F)F)cc1)c1ccccc1)c1ccc(C(F)(F)F)cc1 (stereo partly shown) [Compound 33b]
Output line: 45.8

Input line: Try this compound next: CCc1ccc(C(C)C(=O)N(C)CC[C@H](Oc2ccc(C(F)(F)F)cc2)c2ccccc2)cc1 (stereo partly shown) [Compound 34b]
Output line: 76.4

More entries:
Input line: Give its inhibition at 1 µM value. Item: C[C@H](C(=O)N(C)CC[C@@H](Oc1ccc(C(F)(F)F)cc1)c1ccccc1)c1ccc(C(F)(F)F)cc1 [Compound 33d]
Output line: 82.8

Input line: Try this compound next: CC(C(=O)N(C)CC[C@@H](Oc1ccc(C(F)(F)F)cc1)c1ccccc1)c1ccc(CN(C)C)cc1 (stereo partly shown) [Compound 25a]
Output line: 79.9

Input line: Try this compound next: C[C@H](C(=O)NCC[C@@H](Oc1ccc(C(F)(F)F)cc1)c1ccccc1)c1cccc(C(=O)c2ccccc2)c1
Output line: 77.9

Input line: Try this compound next: COc1ccc2c(c1)c(CC(=O)N(C)CCC(Oc1ccc(C(F)(F)F)cc1)c1ccccc1)c(C)n2C(=O)c1ccc(Cl)cc1 (stereo not shown)
Output line: 34.4

Input line: Try this compound next: CC(C)Cc1ccc(C2(C(=O)N(C)CC[C@@H](Oc3ccc(C(F)(F)F)cc3)c3ccccc3)CC2)cc1 [Compound 36a]
Output line: 59.9

Input line: Try this compound next: CC(C)Cc1ccccc1C(C)C(=O)N(C)CC[C@@H](Oc1ccc(C(F)(F)F)cc1)c1ccccc1 (stereo partly shown) [Compound 38a]
Output line: 98.5

Input line: Try this compound next: CC(C)Cc1ccc([C@H](C)C(=O)N(C)CCC(Oc2ccc(C(F)(F)F)cc2)c2ccccc2)cc1 (stereo partly shown)
Output line: 3.2

Input line: Try this compound next: CC(C)Cc1ccc([C@H](C)C(=O)N(C)CC[C@H](Oc2ccc(C(F)(F)F)cc2)c2ccccc2)cc1 [Compound 12b]
Output line: 1.6

Input line: Try this compound next: CC(C)Cc1ccc(CC(=O)N(C)CC[C@@H](Oc2ccc(C(F)(F)F)cc2)c2ccccc2)cc1 [Compound 32a]
Output line: 90.7
